As shown below, each of these compounds has a reported pIC50 value.
# tgt: IGF-1R (Homo sapiens)
# Sequence (P08069 31-1367): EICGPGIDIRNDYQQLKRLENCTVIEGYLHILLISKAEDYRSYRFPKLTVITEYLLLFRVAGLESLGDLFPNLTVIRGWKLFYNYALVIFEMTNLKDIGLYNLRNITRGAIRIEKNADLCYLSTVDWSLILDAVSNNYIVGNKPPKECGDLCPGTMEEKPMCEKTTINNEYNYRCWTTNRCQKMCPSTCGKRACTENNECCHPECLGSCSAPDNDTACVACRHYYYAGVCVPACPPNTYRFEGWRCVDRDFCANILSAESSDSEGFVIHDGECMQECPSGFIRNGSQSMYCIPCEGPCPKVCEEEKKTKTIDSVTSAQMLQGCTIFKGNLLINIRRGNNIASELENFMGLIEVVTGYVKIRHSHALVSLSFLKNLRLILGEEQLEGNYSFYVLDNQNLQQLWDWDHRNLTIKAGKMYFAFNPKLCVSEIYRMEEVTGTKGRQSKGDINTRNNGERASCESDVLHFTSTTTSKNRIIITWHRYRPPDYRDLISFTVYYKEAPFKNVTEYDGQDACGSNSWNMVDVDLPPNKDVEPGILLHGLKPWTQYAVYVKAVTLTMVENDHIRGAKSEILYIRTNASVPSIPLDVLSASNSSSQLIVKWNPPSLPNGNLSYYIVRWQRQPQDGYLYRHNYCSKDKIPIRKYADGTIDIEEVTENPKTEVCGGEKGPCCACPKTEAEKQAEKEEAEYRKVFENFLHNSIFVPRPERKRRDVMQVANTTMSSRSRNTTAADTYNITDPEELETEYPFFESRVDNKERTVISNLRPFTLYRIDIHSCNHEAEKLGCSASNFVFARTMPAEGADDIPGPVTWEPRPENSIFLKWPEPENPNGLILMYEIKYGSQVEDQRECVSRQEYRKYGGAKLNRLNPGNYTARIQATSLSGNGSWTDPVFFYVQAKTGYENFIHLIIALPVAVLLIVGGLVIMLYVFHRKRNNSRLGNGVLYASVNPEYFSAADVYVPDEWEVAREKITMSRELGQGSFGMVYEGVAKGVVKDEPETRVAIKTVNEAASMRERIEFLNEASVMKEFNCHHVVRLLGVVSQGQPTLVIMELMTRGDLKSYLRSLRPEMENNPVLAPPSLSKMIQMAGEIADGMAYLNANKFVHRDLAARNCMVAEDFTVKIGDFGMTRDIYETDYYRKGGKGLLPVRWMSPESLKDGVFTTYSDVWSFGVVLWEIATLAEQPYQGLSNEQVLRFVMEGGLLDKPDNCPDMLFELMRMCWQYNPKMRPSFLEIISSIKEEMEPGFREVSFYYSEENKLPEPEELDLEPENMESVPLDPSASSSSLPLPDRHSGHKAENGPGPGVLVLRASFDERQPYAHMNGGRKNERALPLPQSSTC
pIC50: −log10 of the molar value.

These solved cases illustrate the format of a correct answer.
NC(=O)c1c(-c2ccc3ccc(-c4ccccc4)nc3c2)nn(C2CC(N3CCOCC3)C2)c1N (stereo not drawn) ... ≥ 7.00
CCOC(=O)[C@]1(C)C[C@@H](n2nc(-c3ccc4ccc(-c5ccccc5)nc4c3)c(C(N)=O)c2N)C1 ... 6.00 to 7.00
COc1cc(-c2ccccc2)nc2c(F)c(-c3nn([C@H]4C[C@@](C)(O)C4)c(N)c3C(N)=O)ccc12 ... ≥ 7.00
CCOC(=O)[C@H]1C[C@@H](n2nc(-c3ccc4ccc(-c5ccccc5)nc4c3)c(C(N)=O)c2N)C1 ... 6.00 to 7.00
NC(=O)c1c(-c2ccc3ccc(-c4ccccc4)nc3c2)nn([C@H]2C[C@@H](C(=O)O)C2)c1N ... 4.70 to 6.00

// returns pIC50 for C[C@]1(O)C[C@@H](n2nc(-c3ccc4ccc(-c5ccccc5F)nc4c3)c(C(N)=O)c2N)C1 with IGF-1R (Homo sapiens); value = ≥ 7.00

The compound CN1CCN(C2CC(n3nc(-c4ccc5ccc(-c6ccccc6)nc5c4)c(C(N)=O)c3N)C2)CC1 (stereo not drawn) , when measured on IGF-1R (Homo sapiens), yielded pIC50 of ≥ 7.00

Query C[C@]1(C(=O)O)C[C@H](n2nc(-c3ccc4ccc(-c5ccccc5)nc4c3)c(C(N)=O)c2N)C1 on IGF-1R (Homo sapiens); pIC50 returned: 4.70 to 6.00

Given the compound NC(=O)c1c(-c2ccc3ccc(-c4ccccc4)nc3c2)nn([C@H]2C[C@H](CN3CCOCC3)C2)c1N and test system IGF-1R (Homo sapiens), the measured pIC50 is ≥ 7.00
